Would you mind telling me the reported phosphorylation enrichment of each entry?
- Assay Target: MERTK (UniProt Q12866)
- Sequence (Q12866 whole entry, looked up): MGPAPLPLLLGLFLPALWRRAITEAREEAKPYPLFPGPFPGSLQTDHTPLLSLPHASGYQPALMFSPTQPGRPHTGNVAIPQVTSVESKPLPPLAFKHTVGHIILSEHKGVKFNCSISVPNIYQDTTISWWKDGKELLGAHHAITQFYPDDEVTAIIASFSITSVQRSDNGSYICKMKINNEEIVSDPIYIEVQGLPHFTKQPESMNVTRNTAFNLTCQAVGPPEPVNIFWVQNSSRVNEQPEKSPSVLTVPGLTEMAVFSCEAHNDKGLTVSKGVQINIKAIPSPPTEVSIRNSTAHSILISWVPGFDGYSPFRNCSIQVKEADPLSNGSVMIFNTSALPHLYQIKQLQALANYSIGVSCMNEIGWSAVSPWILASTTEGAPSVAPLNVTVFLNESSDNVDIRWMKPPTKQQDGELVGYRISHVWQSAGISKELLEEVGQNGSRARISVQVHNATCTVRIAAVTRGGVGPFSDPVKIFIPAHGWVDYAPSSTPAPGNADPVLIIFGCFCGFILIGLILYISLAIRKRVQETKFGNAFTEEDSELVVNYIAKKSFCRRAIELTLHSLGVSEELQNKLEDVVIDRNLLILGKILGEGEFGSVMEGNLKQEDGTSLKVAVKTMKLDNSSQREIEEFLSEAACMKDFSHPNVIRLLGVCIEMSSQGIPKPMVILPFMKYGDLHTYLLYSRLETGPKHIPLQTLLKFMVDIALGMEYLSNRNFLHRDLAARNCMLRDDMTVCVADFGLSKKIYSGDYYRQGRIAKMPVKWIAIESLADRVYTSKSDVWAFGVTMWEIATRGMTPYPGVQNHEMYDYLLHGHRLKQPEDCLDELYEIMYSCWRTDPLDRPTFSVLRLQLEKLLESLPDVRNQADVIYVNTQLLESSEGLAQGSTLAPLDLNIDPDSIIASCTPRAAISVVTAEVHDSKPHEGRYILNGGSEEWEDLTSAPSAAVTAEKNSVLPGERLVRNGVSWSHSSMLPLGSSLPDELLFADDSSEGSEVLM
- Assay Protocol: phosphorylation enrichment, bacterial display (enrichment ratio); higher = better substrate or ligand; peptides without Tyr show the background;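 further: 11-residue human phosphosite peptides and single-mutation variants displayed on the E. coli surface, counted by deep sequencing, each peptide's frequency after selection divided by its frequency in the unselected input library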;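 further: frequency after pTyr selection over input frequency; kinase dosed for 20-30% of maximal phosphorylation in three min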

For LQLLGHRPVYS [CHST6_Y358_Y358H] on MERTK (UniProt Q12866), measured phosphorylation enrichment was 0.374

I looked up EEGESYVCSSD [DCX_Y125] and its phosphorylation enrichment for MERTK (UniProt Q12866) was 0.58

Form field, phosphorylation enrichment with MERTK (UniProt Q12866), item RTEAQYRFIYM [PTPN11_Y511_Q506R] : 0.691

phosphorylation enrichment for MERTK (UniProt Q12866) with input IYRASYYRRGD [LTK_Y676] equals 0.763

Assay MERTK (UniProt Q12866), sample FSCLPYRRLAY [SLC52A2_Y305_G306R] , phosphorylation enrichment read: 0.621

Tested on MERTK (UniProt Q12866), the item QPGDICHQTWA [GBA_Y244_Y244C] showed phosphorylation enrichment equal to 0.306

Known value: MERTK (UniProt Q12866) phosphorylation enrichment of the sequence QDDFSYPSRQM [LDLR_Y847_G844D_YF] equals 0.497

Given the sequence REQREYLDQLN [CCDC88B_Y1277] and test system MERTK (UniProt Q12866), the measured phosphorylation enrichment is 0.433

The sequence SVQVEYMKTIL [GLYATL2_Y127_D126E] on MERTK (UniProt Q12866): phosphorylation enrichment was 0.429

Assay MERTK (UniProt Q12866), sample PLLEFYWDIFT [CDAN1_Y713_R714W_YF] , phosphorylation enrichment read: 0.284

Known value: MERTK (UniProt Q12866) phosphorylation enrichment of the sequence SKAYAYVHFDS [PABPC5_Y149_G146A] equals 0.389

Let me check: KSDVMYTDWKK [ORM1_Y175_V174M] , system MERTK (UniProt Q12866), measured phosphorylation enrichment is 0.562

Given the sequence AEDKPYAELWT [MPI_Y46_M51T] and test system MERTK (UniProt Q12866), the measured phosphorylation enrichment is 0.994

Entry REVVNYVQKRN [RMI1_Y450] , tested on MERTK (UniProt Q12866), has a reported phosphorylation enrichment of 0.869
